Below, each of the molecules is paired with its reported pIC50 value.
Tested on: enkephalinase (Homo sapiens, UniProt P08473)
Sequence (P08473 whole entry, species assumed): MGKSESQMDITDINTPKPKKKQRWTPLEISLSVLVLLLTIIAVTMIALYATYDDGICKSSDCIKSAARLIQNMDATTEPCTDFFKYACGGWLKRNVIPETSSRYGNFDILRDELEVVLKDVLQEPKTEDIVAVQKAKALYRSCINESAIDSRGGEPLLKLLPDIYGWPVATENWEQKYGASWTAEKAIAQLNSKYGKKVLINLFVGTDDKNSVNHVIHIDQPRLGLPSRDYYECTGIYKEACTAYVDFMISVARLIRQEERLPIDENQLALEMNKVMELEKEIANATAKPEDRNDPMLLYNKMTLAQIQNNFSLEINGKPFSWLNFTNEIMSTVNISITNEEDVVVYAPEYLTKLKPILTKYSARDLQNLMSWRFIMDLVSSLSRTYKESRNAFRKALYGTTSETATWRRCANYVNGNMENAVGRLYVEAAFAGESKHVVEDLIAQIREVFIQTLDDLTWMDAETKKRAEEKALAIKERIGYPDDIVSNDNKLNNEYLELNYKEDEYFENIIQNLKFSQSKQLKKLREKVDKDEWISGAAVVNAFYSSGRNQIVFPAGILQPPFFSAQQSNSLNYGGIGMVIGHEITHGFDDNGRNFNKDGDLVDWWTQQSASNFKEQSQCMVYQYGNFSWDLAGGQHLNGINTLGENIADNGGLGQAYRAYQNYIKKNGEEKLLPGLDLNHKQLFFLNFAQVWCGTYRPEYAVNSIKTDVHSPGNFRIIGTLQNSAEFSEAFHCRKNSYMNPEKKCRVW
For clarity, pIC50 is expressed as the negative log10 of concentration in mol/L.

Answer with pIC50 of CCCCC[C@H](CC(=O)NO)C(=O)NC(C(=O)N1CCC[C@H]1C(=O)O)C(C)C (stereo in doubt) [Compound of formula (Ib)] measured for enkephalinase (Homo sapiens, UniProt P08473). 6.51

Answer with pIC50 of CCCCC[C@H](CC(=O)NO)C(=O)N[C@H](C(=O)N1CCC[C@H]1CO)C(C)C [Actinonin, actinonin] measured for enkephalinase (Homo sapiens, UniProt P08473). 5.25

Answer with pIC50 of CCCCC[C@H](CC(=O)NO)C(=O)N[C@H](C(=O)N1CCC[C@H]1C(=O)NO)C(C)C [Compound of formula (Id)] measured for enkephalinase (Homo sapiens, UniProt P08473). 5.92

---

Tested on: angiotensin-conversion enzyme (ACE) (Homo sapiens, UniProt P12821)
Sequence (P12821 30-1306, species assumed): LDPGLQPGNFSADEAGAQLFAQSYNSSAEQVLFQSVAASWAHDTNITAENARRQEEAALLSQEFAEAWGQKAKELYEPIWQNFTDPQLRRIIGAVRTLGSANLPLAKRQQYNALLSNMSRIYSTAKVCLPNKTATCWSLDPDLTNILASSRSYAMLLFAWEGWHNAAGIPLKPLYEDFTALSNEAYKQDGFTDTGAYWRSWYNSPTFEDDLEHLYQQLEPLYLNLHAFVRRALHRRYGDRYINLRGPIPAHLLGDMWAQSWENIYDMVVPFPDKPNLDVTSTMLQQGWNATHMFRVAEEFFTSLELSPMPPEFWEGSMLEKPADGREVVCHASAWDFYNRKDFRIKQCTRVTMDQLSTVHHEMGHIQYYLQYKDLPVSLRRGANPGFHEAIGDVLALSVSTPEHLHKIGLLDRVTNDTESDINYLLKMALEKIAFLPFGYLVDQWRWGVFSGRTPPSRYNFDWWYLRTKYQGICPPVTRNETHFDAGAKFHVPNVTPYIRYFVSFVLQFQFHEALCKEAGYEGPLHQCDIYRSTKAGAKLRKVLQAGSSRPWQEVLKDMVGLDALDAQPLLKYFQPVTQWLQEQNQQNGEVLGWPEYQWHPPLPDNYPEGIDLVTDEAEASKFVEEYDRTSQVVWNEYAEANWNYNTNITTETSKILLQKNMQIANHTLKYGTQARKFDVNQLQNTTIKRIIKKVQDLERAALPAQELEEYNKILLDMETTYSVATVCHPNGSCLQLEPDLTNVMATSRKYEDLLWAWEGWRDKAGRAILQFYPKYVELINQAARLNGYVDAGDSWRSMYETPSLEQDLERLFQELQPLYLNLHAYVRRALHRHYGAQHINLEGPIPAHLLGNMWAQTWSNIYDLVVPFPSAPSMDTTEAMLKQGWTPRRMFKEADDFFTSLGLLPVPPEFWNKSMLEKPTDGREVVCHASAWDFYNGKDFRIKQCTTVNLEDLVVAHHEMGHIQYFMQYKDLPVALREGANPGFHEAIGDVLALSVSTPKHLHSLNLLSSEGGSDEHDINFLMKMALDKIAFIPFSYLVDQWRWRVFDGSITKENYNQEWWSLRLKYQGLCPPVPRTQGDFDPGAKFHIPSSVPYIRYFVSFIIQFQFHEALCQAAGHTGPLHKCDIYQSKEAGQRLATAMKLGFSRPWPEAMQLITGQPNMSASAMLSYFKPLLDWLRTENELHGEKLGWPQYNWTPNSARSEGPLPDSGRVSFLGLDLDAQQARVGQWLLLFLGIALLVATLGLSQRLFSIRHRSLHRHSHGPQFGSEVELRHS
Method summary: ACE-inhibitory activity
Format: biochemical
Cond: method of Analytical Biochemistry, 84, 361 (1978)
Below, each of the compounds is paired with its reported pIC50 value.
For clarity, pIC50 is expressed as the negative log10 of concentration in mol/L.

# annotated cases, reported pIC50 shown
- Compound: "CCCCC[C@H](CC(=O)NO)C(=O)NC(C(=O)N1CCC[C@H]1C(=O)O)C(C)C (stereo in doubt)"
  pIC50: 4.55
- Compound: "CCCCC[C@H](CC(=O)NOS(=O)(=O)O)C(=O)NC(C(=O)N1CCC[C@H]1COS(=O)(=O)O)C(C)C (stereo in doubt)"
  pIC50: 4.04
- Compound: "CCCCC[C@H](CC(=O)NO)C(=O)N[C@H](C(=O)N1CCC[C@H]1CO)C(C)C"
  pIC50: 3.23

Answer with pIC50 of `CCCCC[C@H](CC(=O)NO)C(=O)N[C@H](C(=O)N1CCC[C@H]1C(=O)NO)C(C)C` measured for angiotensin-conversion enzyme (ACE) (Homo sapiens, UniProt P12821). 6.28

This collection of values is drawn from patent US5206384A.
